assay: Oral bioavailability in Wistar Han rat at 10 mg/kg; format: ADME, organism-based; conditions: in vivo
reported_endpoint: bioavailability

Query string: Entry under review: `Nc1ncc(-c2nc(N3CCOCC3)nc(N[C@@]3(CO)CCN(C(=O)OCC(F)F)C3)c2F)cn1` . Reported bioavailability?
Result string: 25%

----------
test: AUC (0 to t) in Wistar Han rat at 2 mg/kg, iv; format: ADME, organism-based; set-up: dose 2 mg/kg; conditions: in vivo
reported_endpoint: AUC(0-t)
Please don't drop the unit; write it after the number.

Query string: Entry under review: `Nc1ncc(-c2nc(N3CCOCC3)nc(N[C@@]3(CO)CCN(C(=O)OCC(F)F)C3)c2F)cn1` . Reported AUC(0-t)?
Result string: 1100 ng·h/mL
